Target: HLA-A*11:01
Assay: IEDB peptide-MHC binding, purified MHC/competitive/radioactivity; filed as Kd, often an IC50 or EC50 that approximates it; bounds were set here for any values at or beyond the usual limits of such assays
Conditions: source organism: Vaccinia virus WR
pKd: −log10 of the molar value.
readout: pKd

chain_sequence	readout	experimental_value
IAHINTLIQY	pKd	6.01
TIREFPRKDK	pKd	4.79
TLNHVLALKY	pKd	5.94
ELCGAFLFY	pKd	6.71
RVMANNVKKK	pKd	7.02
ATLMKTSCSK	pKd	7.70
YLGSANMDWR	pKd	6.04

---

Target: HLA-A*31:01
Experiment: IEDB peptide-MHC binding, purified MHC/competitive/radioactivity; filed as Kd, often an IC50 or EC50 that approximates it; bounds were set here for any values at or beyond the usual limits of such assays
Conditions: source organism: Vaccinia virus WR
pKd: −log10 of the molar value.
Property: pKd; scope: individual sequences

chain_sequence	test_target	pKd
TLNHVLALKY	HLA-A*31:01	≤ 4.16
QTPTKLMNK	HLA-A*31:01	≤ 4.64
NTMCTEETK	HLA-A*31:01	≤ 4.11
RPDTRHLRVL	HLA-A*31:01	≤ 4.15
FIRRKYLIY	HLA-A*31:01	≤ 4.11
AITDNGPMPY	HLA-A*31:01	≤ 4.22
SACANGWIQY	HLA-A*31:01	≤ 4.26
DTDIFSPENK	HLA-A*31:01	≤ 4.65
VAGTGVQFY	HLA-A*31:01	≤ 4.27
ETVKMGAFMY	HLA-A*31:01	≤ 4.50
PIIVAGFSGK	HLA-A*31:01	≤ 4.15
MVSVSDFRDY	HLA-A*31:01	≤ 4.15
FIFSALDEK	HLA-A*31:01	≤ 4.31
